These measurements were taken from patent US11236052B2.

Test: Pharmacokinetic studies in the mouse
Format: in vivo
Conditions: plasma, 1.0 mg/kg IV, read-out: Vss
Consider the following compounds and their measured Vd readings.
Please state the figure in L/kg; there is no need to write the unit.

Before answering, review these 2 worked examples.
>>> print(df.to_string())
                                  structure  valueunits  measurement
0  O=C(NO)c1ccc(Nc2nc3ccccc3n2CC2CCCCC2)cc1        L/kg         1.21
1   O=C(NO)c1ccc(Nc2nc3ccccc3n2C2CCCCC2)cc1        L/kg          3.5

// below: Vd requested for another compound
For reference, reported Vd for O=C(NO)c1ccc(Nc2nc3ccccc3n2C2CCCCCC2)cc1 stands at 1.96
